Target: ADAMTS-4 (Agg-1) (Homo sapiens);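 also: purified enzyme preincubated 10 min with inhibitor at room temperature, then initial substrate cleavage rate (RFU/min) read by fluorescence plate reader versus the uninhibited rate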
Sequence (O75173 213-837): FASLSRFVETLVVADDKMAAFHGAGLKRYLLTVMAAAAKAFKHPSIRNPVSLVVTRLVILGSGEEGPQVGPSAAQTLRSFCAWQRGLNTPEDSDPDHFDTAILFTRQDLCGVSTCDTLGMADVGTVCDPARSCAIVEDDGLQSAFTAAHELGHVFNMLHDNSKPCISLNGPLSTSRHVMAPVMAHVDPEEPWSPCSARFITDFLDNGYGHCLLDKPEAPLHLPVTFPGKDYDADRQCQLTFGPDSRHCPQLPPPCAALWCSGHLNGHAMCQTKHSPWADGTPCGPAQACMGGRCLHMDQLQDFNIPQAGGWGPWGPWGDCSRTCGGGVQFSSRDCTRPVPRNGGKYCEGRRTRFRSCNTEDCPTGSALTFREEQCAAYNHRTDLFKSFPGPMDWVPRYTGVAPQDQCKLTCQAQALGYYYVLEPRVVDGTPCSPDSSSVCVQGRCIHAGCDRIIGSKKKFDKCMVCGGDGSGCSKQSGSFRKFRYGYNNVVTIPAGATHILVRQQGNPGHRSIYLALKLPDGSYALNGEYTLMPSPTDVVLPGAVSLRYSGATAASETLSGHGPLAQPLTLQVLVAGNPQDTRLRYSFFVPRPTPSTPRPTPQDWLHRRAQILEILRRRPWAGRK
pIC50: −log10 of the molar value.
quantity-measured: pIC50

Before answering, review these 5 worked examples.
CC(C)C(=O)c1ccc(OCc2ccc(-c3ccc(S(=O)(=O)N[C@@H](C(=O)O)C(C)C)cc3)cc2)cc1 [drawing 152]: 7.00
CC(C)[C@@H](NS(=O)(=O)c1ccc(-c2ccccc2)cc1)C(=O)O: 5.59
CC(C)C(=O)c1ccc(OCc2ccc(-c3ccc(S(=O)(=O)N[C@@H](C(=O)O)C(C)C)cc3)cc2)cc1 [drawing 151]: 7.00
CC(C)[C@@H](NS(=O)(=O)c1ccc(-c2ccc(COc3ccc(C(=O)c4ccc(F)cc4)cc3)cc2)cc1)C(=O)O [drawing 171]: 7.00
Cc1cccc(Oc2ccc(OCc3ccc(-c4ccc(S(=O)(=O)N[C@@H](C(=O)O)C(C)C)c(F)c4)cc3)cc2)n1: 6.05

I = CC(C)[C@@H](NS(=O)(=O)c1ccc(-c2ccc(COc3ccc(C(=O)c4ccc(F)cc4)cc3)cc2)cc1)C(=O)O [drawing 172]
II = CC(C)[C@@H](NS(=O)(=O)c1ccc(-c2ccc(COc3ccc(NC(=O)OC(C)(C)C)cc3)cc2)cc1)C(=O)O
Prompt line: # query: argmin of pIC50 over I and II Please respond with the label that marks your chosen entry.
Response line: II

I = CC(C)[C@@H](NS(=O)(=O)c1ccc(-c2ccc(COc3ccc(F)cc3)cc2)cc1)C(=O)O
II = CC(C)[C@@H](NS(=O)(=O)c1ccc(-c2ccc(COc3ccc4c(c3)CCC4)cc2)cc1)C(=O)O
Prompt line: Lab note: check whether I or II shows the higher recorded pIC50. Please respond with the label that marks your chosen entry.
Response line: II
(II: 6.40, I: 5.77)
